Attribution: paper PMC9911399

tested-system: T1, RBFOX1 RRM RbFoxmut (Fox-RRM*) (Homo sapiens, UniProt Q9NWB1 109-208, R118D;E147R;N151S;E152T)
T1 sequence: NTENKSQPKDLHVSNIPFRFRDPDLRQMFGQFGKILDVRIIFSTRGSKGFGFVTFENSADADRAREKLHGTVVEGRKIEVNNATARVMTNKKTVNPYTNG
method: EMSA; HiTS-Eq, 1 nM pool, 10 min; buffer printed only for the single-RNA assays: 10 mM Tris pH 7.5, 150 mM NaCl, 3.4 mM EDTA, 0.001% NP-40, 30 C
test-conditions: tags: His6 N-terminal (pET28a); label: 5' 32P
Over roughly 16,000 sequences, “ka relative to ugcaugu” has its median near 0.096; the highest 2% begin near 0.35. The list comes from a sample in which the highest values are over-represented; it also holds close analogues and randomly drawn sequences.
Would you kindly list binding signal for each of these binders?

Q: Specify reported binding signal for the binder shown: CCGUAUC (DNA:RNA) RNA: GGGAGACCGGAAUUCAGAUUGUCCCCGUAUCUUAAAUCCCGUCGUAGCCACCA DNA 1: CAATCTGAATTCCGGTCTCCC DNA 2: TGGTGGCTACGACGGGATT
A: 0.163 KA relative to UGCAUGU

Q: Provide only the value of recorded binding signal for GUGUAUC (DNA:RNA) RNA: GGGAGACCGGAAUUCAGAUUGUCCGUGUAUCUUAAAUCCCGUCGUAGCCACCA DNA 1: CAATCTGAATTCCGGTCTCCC DNA 2: TGGTGGCTACGACGGGATT
A: 0.424 KA relative to UGCAUGU

Q: Give binding signal for the following binder: GCAGGAG (DNA:RNA) RNA: GGGAGACCGGAAUUCAGAUUGUCCGCAGGAGUUAAAUCCCGUCGUAGCCACCA DNA 1: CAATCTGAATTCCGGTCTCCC DNA 2: TGGTGGCTACGACGGGATT
A: 0.0994 KA relative to UGCAUGU

Q: Return binding signal (reported value) for this binder: GGCAUGA (DNA:RNA) RNA: GGGAGACCGGAAUUCAGAUUGUCCGGCAUGAUUAAAUCCCGUCGUAGCCACCA DNA 1: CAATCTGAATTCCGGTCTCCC DNA 2: TGGTGGCTACGACGGGATT
A: 0.624 KA relative to UGCAUGU
